Please respond with reported half-life at 0.2 μM for every item in the list.
- assay.info: In vitro skin S9 metabolic stability assay (human)
- Format: in vitro ADME
- condition.label: human skin S9 sub-fraction, pH 7.4; Human skin S9, 0.2 μM, 1.0 mg/mL protein, 1 mM NADPH; read-out: Half-Life

I have this compound here, CC(Cc1cccc(C(F)(F)F)c1)NCCOC(=O)c1ccccc1 (centres unmarked) [Benfluorex, reference compound] , and I need its recorded half-life at 0.2 μM.
< 15 min

Now for another entry.
Which half-life at 0.2 μM is reported for this compound? CCOc1ccc2ccc(=O)oc2c1 [7-Ethoxycoumarin, reference compound]
> 30 min

---

- assay.info: In vitro skin S9 metabolic stability assay (human)
- Format: in vitro ADME
- condition.label: human skin S9 sub-fraction, pH 7.4; Human skin S9, 2 μM, 1.0 mg/mL protein, 1 mM NADPH; read-out: Half-Life
For each record, write down the corresponding half-life at 2 μM.

Given CC(Cc1cccc(C(F)(F)F)c1)NCCOC(=O)c1ccccc1 (centres unmarked) [Benfluorex, reference compound] , state its recorded half-life at 2 μM.
< 15 min

Then there is this compound:
Consider the compound shown here: CCOc1ccc2ccc(=O)oc2c1 [7-Ethoxycoumarin, reference compound] What is its recorded half-life at 2 μM?
> 30 min
